src = ChEMBL document CHEMBL1649506

- Test system: rhinovirus A2
- method: Antiviral activity against HRV2 infected in human RD cells assessed as protection against virus-induced cytopathogenicity
- Type: functional, organism-based
- measurement-conditions: Rhinovirus A
endpoint-name: pEC50
Interpret pEC50 as the negative base-10 log of the concentration measured in mol/L.

Given item Cc1ccsc1C(c1ccccc1Br)N1CCN(c2ncnc3c2cnn3-c2ccccc2)CC1 (stereo unspecified) , the value recorded as its pEC50 is 5.77

###

- Test system: Enterovirus A71
- method: Antiviral activity against EV71 infected in human RD cells assessed as inhibition of viral plaque formation 16 hrs by plaque formation assay
- Assay type: functional, organism-based
- measurement-conditions: Enterovirus A
endpoint-name: pEC50
Interpret pEC50 as the negative base-10 log of the concentration measured in mol/L.

Given item Cc1ccsc1C(c1ccccc1Br)N1CCN(c2ncnc3c2cnn3-c2ccccc2)CC1 (stereo unspecified) , the value recorded as its pEC50 is 6.51
